TEST_SYSTEM: ROCKII (1-543) (Homo sapiens, UniProt O75116)
Sequence (O75116 1-543, species assumed): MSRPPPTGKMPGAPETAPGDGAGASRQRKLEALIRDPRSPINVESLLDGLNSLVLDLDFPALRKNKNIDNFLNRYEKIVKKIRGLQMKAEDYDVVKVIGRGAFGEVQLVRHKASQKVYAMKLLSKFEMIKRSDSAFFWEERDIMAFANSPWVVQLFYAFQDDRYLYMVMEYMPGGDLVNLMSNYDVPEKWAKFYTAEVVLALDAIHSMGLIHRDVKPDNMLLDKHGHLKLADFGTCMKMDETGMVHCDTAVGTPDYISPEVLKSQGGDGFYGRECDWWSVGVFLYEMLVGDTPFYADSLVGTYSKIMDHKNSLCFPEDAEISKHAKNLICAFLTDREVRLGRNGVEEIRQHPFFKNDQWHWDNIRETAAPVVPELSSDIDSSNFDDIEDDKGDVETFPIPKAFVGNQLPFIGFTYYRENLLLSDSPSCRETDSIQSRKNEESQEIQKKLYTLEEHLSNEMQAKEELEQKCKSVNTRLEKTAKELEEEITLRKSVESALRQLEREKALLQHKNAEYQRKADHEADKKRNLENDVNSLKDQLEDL
TEST_SUMMARY: IMAP Assay (fluorescence polarization, FAM S6 peptide)
Type: biochemical
Design: 3 nM ROCKII (1-543) diluted in kinase reaction buffer
CONDITION_NOTES: IMAP FP, 1 nM ROCKII (1-543), 100 μM ATP; read-out: Assay 2 IC50
Structures can show the parent of a compound that is named as a salt.
READOUT_NAME: pIC50
Worth noting: pIC50 values are minus log10 of concentrations stated in mol/L.

Input: Entry COCCN(C)[C@H]1CCc2nc(NC(=O)c3cccc(Cn4cc(-c5ccc(C#N)cc5)cn4)c3)sc2C1 : reported pIC50 = ?
Output: 9.47

Input: Ok, now COCCN(C)[C@H]1CCc2nc(NC(=O)c3cccc(Cn4cc(-c5ccc(C#N)cc5)nn4)c3)sc2C1
Output: 9.14

Input: Ok, now N#Cc1ccc(-c2cn(Cc3cccc(C(=O)Nc4nc5c(s4)C[C@@H](N4CCCCC4)CC5)c3)nn2)cc1
Output: 9.28

Input: Ok, now N#Cc1ccc(-c2cnn(Cc3cccc(C(=O)Nc4nc5c(s4)CC(N4CCC(F)(F)CC4)CC5)c3)c2)cc1 (centres unmarked) [Compound 15, trifluoroacetate]
Output: 8.62

Input: Ok, now CN(CCC(F)(F)F)[C@H]1CCc2nc(NC(=O)c3cccc(Cn4cc(-c5ccc(C#N)cc5)cn4)c3)sc2C1
Output: 8.14

Input: Ok, now CN(C)[C@H]1CCc2nc(NC(=O)c3cccc(Cn4cc(-c5ccc(C#N)cc5)nn4)c3)sc2C1
Output: 9.31

Input: Ok, now N#Cc1ccc(-c2cn(Cc3cccc(C(=O)Nc4nc5c(s4)C[C@@H](N4CCOCC4)CC5)c3)cn2)cc1
Output: 9.06

Input: Ok, now N#Cc1ccc(-c2cnn(Cc3cccc(C(=O)Nc4nc5c(s4)C[C@@H](N4CCOCC4)CC5)c3)c2)cc1
Output: 9.40

Input: Ok, now COCCN[C@H]1CCc2nc(NC(=O)c3cccc(Cn4cc(-c5ccc(C#N)cc5)nn4)c3)sc2C1
Output: 9.49

Input: Ok, now N#Cc1ccc(-c2cn(Cc3cccc(C(=O)Nc4nc5c(s4)C[C@@H](N)CC5)c3)nn2)cc1
Output: 9.14

Input: Ok, now N#Cc1ccc(-c2nnc(Cc3cccc(C(=O)Nc4nc5c(s4)C[C@@H](N4CCOCC4)CC5)c3)s2)cc1
Output: 8.40

Input: Ok, now C[C@@H]1CN(C2CCc3nc(NC(=O)c4cccc(Cn5cc(-c6ccc(C#N)cc6)nn5)c4)sc3C2)C[C@H](C)O1 (some centres unmarked)
Output: 8.41

Input: Ok, now COCCN(CCOC)[C@H]1CCc2nc(NC(=O)c3cccc(Cn4cc(-c5ccc(C#N)cc5)nn4)c3)sc2C1
Output: 8.19

Input: Ok, now N#Cc1ccc(-c2cn(Cc3cccc(C(=O)Nc4nc5c(s4)CC(N4CCC(F)(F)CC4)CC5)c3)nn2)cc1 (centres unmarked)
Output: 8.24

Source: patent US9000154B2
